From: patent US12331044B2

# testTarget: human HDAC2 (Homo sapiens (Human))
# Sequence (Q92769 whole entry): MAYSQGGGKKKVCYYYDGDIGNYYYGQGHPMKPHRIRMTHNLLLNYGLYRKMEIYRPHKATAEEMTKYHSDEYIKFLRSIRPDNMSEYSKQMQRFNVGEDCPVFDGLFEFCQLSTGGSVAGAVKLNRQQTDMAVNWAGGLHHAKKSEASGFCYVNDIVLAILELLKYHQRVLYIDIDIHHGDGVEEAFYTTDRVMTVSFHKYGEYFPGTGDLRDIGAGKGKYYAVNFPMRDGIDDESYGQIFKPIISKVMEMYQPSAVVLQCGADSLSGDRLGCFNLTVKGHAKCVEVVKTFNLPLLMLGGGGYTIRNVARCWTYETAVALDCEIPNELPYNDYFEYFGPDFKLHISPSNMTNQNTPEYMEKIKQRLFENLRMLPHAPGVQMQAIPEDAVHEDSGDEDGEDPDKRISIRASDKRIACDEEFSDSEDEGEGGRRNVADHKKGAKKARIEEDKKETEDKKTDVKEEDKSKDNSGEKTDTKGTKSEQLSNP
# testProtocol: HDAC2 inhibition assay (modified FLUOR DE LYS, 384-well)
# Type: biochemical
# condition: […] enzyme, 40 μM substrate BML-KI104, 3 h pre-incubation; read-out: HDAC2 IC50
Note to self: class = bucket of IC50, per small value = under 2 nM, mid value = from 2 nM up to 6 nM, large value = 6 nM and over

[[record]]
compound = "COc1nc2ccccc2cc1-c1cnc([C@H](CCCCCC(=O)c2ncco2)NC(=O)c2ccncn2)[nH]1 [Example 149]"
testtarget = "human HDAC2 (Homo sapiens (Human))"
labelclass = "large value"

[[record]]
compound = "CCN1CCC2(CC1)C[C@@H]2C(=O)N[C@@](C)(CCCCCC(=O)c1ccon1)c1ncc(-c2ccccc2F)[nH]1 [Example 183]"
testtarget = "human HDAC2 (Homo sapiens (Human))"
labelclass = "mid value"

[[record]]
compound = "COc1nc2ccccc2cc1-c1cnc([C@H](CCCCCC(=O)c2ncco2)NC(=O)CN2CCCCC2)[nH]1 [Example 53]"
testtarget = "human HDAC2 (Homo sapiens (Human))"
labelclass = "mid value"

[[record]]
compound = "COc1nc2ccccc2cc1-c1cnc([C@H](CCCCCC(=O)c2ncco2)NC(=O)CN2CCOCC2)[nH]1 [Example 54]"
testtarget = "human HDAC2 (Homo sapiens (Human))"
labelclass = "large value"

[[record]]
compound = "CCN1CCC2(CC1)C[C@@H]2C(=O)N[C@@H](CCCCCC(=O)c1ncco1)c1ncc(-c2cc(OC3CCC3)ccc2F)[nH]1 [Example 182]"
testtarget = "human HDAC2 (Homo sapiens (Human))"
labelclass = "large value"

[[record]]
compound = "COc1cc2nc(C)ccc2cc1-c1cnc([C@H](CCCCCC(=O)c2cc(C)on2)NC(=O)CN(C)C)[nH]1 [Example 56]"
testtarget = "human HDAC2 (Homo sapiens (Human))"
labelclass = "small value"

[[record]]
compound = "COc1nc2ccccc2cc1-c1cnc([C@H](CCCCCC(=O)c2ncco2)NC(=O)CN(C)C)[nH]1 [Example 41]"
testtarget = "human HDAC2 (Homo sapiens (Human))"
labelclass = "mid value"

[[record]]
compound = "COc1cc2nc(C)ccc2cc1-c1cnc([C@H](CCCCCC(=O)c2ncco2)NC2CCOCC2)[nH]1 [Example 80]"
testtarget = "human HDAC2 (Homo sapiens (Human))"
labelclass = "large value"

[[record]]
compound = "COc1nc2ccccc2cc1-c1cnc([C@H](CCCCCC(=O)c2ncco2)NC(=O)c2cncs2)[nH]1 [Example 42]"
testtarget = "human HDAC2 (Homo sapiens (Human))"
labelclass = "mid value"

[[record]]
compound = "COc1cc2nc(C)ccc2cc1-c1cnc([C@H](CCCCCC(=O)c2cc(C)on2)NC(=O)C2CC23CCN(C)CC3)[nH]1 (stereo partly shown) [Example 58]"
testtarget = "human HDAC2 (Homo sapiens (Human))"
labelclass = "small value"

[[record]]
compound = "COc1cc2nc(C)ccc2cc1-c1cnc([C@H](CCCCCC(=O)c2ccon2)NC(=O)CN(C)C)[nH]1 [Example 91]"
testtarget = "human HDAC2 (Homo sapiens (Human))"
labelclass = "small value"

[[record]]
compound = "COc1nc2ccccc2cc1-c1cnc([C@H](CCCCCC(=O)c2ncco2)NC(=O)CN2CCCC2)[nH]1 [Example 52]"
testtarget = "human HDAC2 (Homo sapiens (Human))"
labelclass = "mid value"

[[record]]
compound = "COc1cc2c(ccc(=O)n2C)cc1-c1cnc([C@H](CCCCCC(=O)c2ncco2)NC(=O)CN(C)C)[nH]1 [Example 92]"
testtarget = "human HDAC2 (Homo sapiens (Human))"
labelclass = "large value"

[[record]]
compound = "Cc1ccc2cc(-c3c[nH]c([C@H](CCCCCC(=O)c4ccon4)NC(=O)[C@H]4CC45CCN(C)CC5)n3)ccc2n1 [Example 44]"
testtarget = "human HDAC2 (Homo sapiens (Human))"
labelclass = "small value"

[[record]]
compound = "CCN1CCC2(CC1)C[C@@H]2C(=O)N[C@@H](CCCCCC(=O)c1ncco1)c1ncc(-c2cc(OC)ncc2F)[nH]1 [Example 179]"
testtarget = "human HDAC2 (Homo sapiens (Human))"
labelclass = "large value"

